Data provenance: PubChem BioAssay (NCI)

protocol: NCI Yeast Anticancer Drug Screen. Data for the cln2 rad14 strain (AID 165);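 further: 0% = growth equal to vehicle treated cultures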
condition details: S. cerevisiae cln2 rad14 strain, at 50.0 µM, active compounds read high
About 79,000 compounds went through this panel and 15% of them were active in at least one assay; those are over-represented in the sample as a whole.
Entries get a class label from measured growth inhibition. See ranges: class 1 (below 40%), class 2 (40% to below 90%), class 3 (90% or more)

compound: CC(C)SC(=S)Nc1ccc(Cl)c([N+](=O)[O-])c1
label: class 3
//
compound: Clc1nn2nnnc2c2ccccc12
label: class 1
//
compound: COc1c([N+](=O)[O-])cc(-c2ccccc2)cc1[N+](=O)[O-]
label: class 2
//
compound: CN1CC[C@@H](c2ccccc2)[C@@H](O)C1
label: class 1
//
compound: CCOC(=O)C1=C(Nc2ccc(Cl)c(Cl)c2)OC/C1=N\NS(=O)(=O)c1ccc(C)cc1
label: class 2
//
compound: COC(=O)CSc1nc2ccccc2[nH]1
label: class 1
//
compound: CCCCn1c(C)nc2cc(C(F)(F)F)cc(N)c21
label: class 1
//
compound: Oc1cc(Br)cc2cc(Br)cnc12
label: class 2
//
compound: CCOC(=O)CC1=NC(=Nc2ccc(Cl)c(Cl)c2)SC1
label: class 3
//
compound: O=[N+]([O-])c1ccc(CCCl)c(CCl)c1
label: class 3
//
compound: O=C(Nc1ccc(Cl)cc1)OCCOCCOC(=O)Nc1ccc(Cl)cc1
label: class 3
//
compound: CC1(C)c2ccccc2-c2nc3ccccc3cc2C1Br (stereo unspecified)
label: class 2
//
compound: COc1ccc(Cc2nc3ccc(Cl)cc3[nH]2)cc1
label: class 2
//
compound: Cc1ccc(COCO)c(O)c1
label: class 1
//
compound: S=C(C(=S)N1CCOCC1)N1CCOCC1
label: class 1
//
compound: CN(C)CCCNc1c2ccccc2nc2ccc(F)cc12
label: class 2
//
compound: O=[N+]([O-])c1ccccc1NCCO
label: class 1
//
compound: COc1ccc(-c2ccccc2)cc1SCCC(=O)O
label: class 2
//
compound: Nc1nnc2nc(CC(=O)c3ccc([N+](=O)[O-])cc3)c(CC(=O)c3ccc([N+](=O)[O-])cc3)nn12
label: class 2
//
compound: CCOC(=O)C1=C(C)NC(C)=C(C(=O)OCC)C1c1ccnc2ccccc12
label: class 2
//
compound: O=C(c1ccccc1)N(C(=S)N(C(=O)c1ccccc1)c1ccccc1)c1ccccc1
label: class 3
//
compound: CCCC[NH-].CCCC[NH-].[I][Pt+2][I]
label: class 1
//
compound: CC1=CC(c2c(O)cc(O)c(C(=O)CCc3ccccc3)c2O)C(C(C)C)CC1 (stereo unspecified)
label: class 2
//
compound: Cc1c[nH]c2nc(C)n(-c3ccccc3)c(=N)c12
label: class 1
//
compound: S=C(Nc1ccccn1)c1ccccn1
label: class 1
//
compound: Clc1sc2ccccc2c1Cl
label: class 1
//
compound: Cn1c2ccccc2c2cc3cnccc3cc21
label: class 3
//
compound: COc1ccc(C(=O)Nc2ccccc2OC)cc1
label: class 1
//
compound: Cc1ccnc2[nH]c3ccccc3c(=O)c12
label: class 1
//
compound: CN(C)CCOC1(CC2CCCCC2)CCC(C(C)(C)C)CC1 (stereo unspecified)
label: class 3
//
compound: Clc1ccc(CSc2ncnc3c2ncn3C2CCCCO2)cc1 (stereo unspecified)
label: class 3
//
compound: COC(=O)c1nc(=S)[nH]c(C(=O)OC)c1C(=O)c1ccc(O)c(OC)c1
label: class 2
//
compound: CN(C)CCOC(=O)C1(CCC2CCCCC2)CCCCC1
label: class 1
//
compound: Cc1cc2nc3ccc(N)cc3oc-2cc1=[N+](C)C
label: class 2
//
compound: Nc1ccc(S(=O)(=O)Nc2cc(Cl)cc(Cl)c2)cc1
label: class 3
//
compound: C(=N\N=C\c1ccc2c(c1)OCO2)/c1ccc2c(c1)OCO2
label: class 2
//
compound: CCC(N)C(O)C(C)C (stereo unspecified)
label: class 1
//
compound: CC(C)/C=C1\CCC(CN2CCOCC2)C1=O (stereo unspecified)
label: class 1
//
compound: N#CC1(C#N)C(C#N)(C#N)C12CCCCCC2
label: class 3
//
compound: C(=C\c1cccc2ccccc12)/c1ccncc1
label: class 3
//
compound: NC(N)=NC(N)=Nc1ccc(-c2ccccc2)cc1
label: class 1
//
compound: CCCC(CC)c1c(O)c(O)c(C(CC)CCC)c(C(CC)CCC)c1C(CC)CCC (stereo unspecified)
label: class 3
//
compound: CC(c1ccccc1)C(C(=O)O)(c1ccccc1)c1ccccc1 (stereo unspecified)
label: class 3
//
compound: COC(=O)C1(C)CCCC2(C)C3CCC4CC3(C=C4CO)CCC12 (stereo unspecified)
label: class 2

---

protocol: NCI Yeast Anticancer Drug Screen. Data for the bub3 strain (AID 167)
condition details: S. cerevisiae bub3 mutant strain, at 5.0 µM (retest, dose inferred, filed as 0.5), active compounds read high
This is part of a sample that, as a whole, favours compounds with a hit. Of some 79,000 tested, about 15% had one in any assay.
Reported values of growth inhibition for individual entries
measurement label: growth inhibition (%)

compound: O=c1[nH]c(Cc2ccccc2)nc2c1sc1nc3ccccc3n12
measurement label: growth inhibition
assay value: 8

compound: CCOC(=O)C(=O)N1C(C)=C(C(=O)OCC)CC(C(=O)OCC)=C1C
measurement label: growth inhibition
assay value: 27

compound: O=C(Nc1ccccc1C(=O)NC(=O)c1ccccc1NC(=O)c1ccccc1)c1ccccc1
measurement label: growth inhibition
assay value: -1

compound: COc1ccc(SC2=C(N(C)C)C(=O)c3ccccc3C2=O)cc1
measurement label: growth inhibition
assay value: -10

compound: O=S(=O)(OCC#CCOS(=O)(=O)c1ccc(Cl)c(Cl)c1)c1ccc(Cl)c(Cl)c1
measurement label: growth inhibition
assay value: -4

compound: Cc1nc(Cl)c(C#N)c(C)c1[N+](=O)[O-]
measurement label: growth inhibition
assay value: -63

compound: COC(O)C(=O)c1ccc2c(c1)CC1(C2)Cc2cc3c(cc2C1=O)CCC3 (stereo unspecified)
measurement label: growth inhibition
assay value: 35

compound: COc1cccc(/C=N/NC(=O)c2c(-c3ccccc3)noc2C)c1O
measurement label: growth inhibition
assay value: 42

compound: CC(C)c1ccc2c(c1)CC[C@H]1[C@](C)(CN)CCC[C@]21C
measurement label: growth inhibition
assay value: 7

compound: OCCN(CCO)c1cc(/C=C/c2ccnc3ccccc23)nc2ccccc12
measurement label: growth inhibition
assay value: 1

compound: CCCCCCCCCc1ccc(OCC(O)CO)cc1 (stereo unspecified)
measurement label: growth inhibition
assay value: -9

---

protocol: NCI Yeast Anticancer Drug Screen. Data for the rad50 strain (AID 155);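 further: 0% = growth of vehicle-only cultures of the same strain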
condition details: S. cerevisiae rad50 strain growth inhibition; at 50.0 µM (retest, dose inferred, filed as 5.0); active compounds read high
This is part of a sample that, as a whole, favours compounds with a hit. Of some 79,000 tested, about 15% had one in any assay.
Reported values of growth inhibition for individual entries

compound: O=S1OCCS1 (stereo unspecified)
units: %
growth inhibition: 87
--
compound: Clc1nn2nnnc2c2ccccc12
units: %
growth inhibition: 87
--
compound: Cc1ccc2ccc3ccc(C)nc3c2n1
units: %
growth inhibition: 93
--
compound: Clc1cc[c]([Sn]([O][Sn]([c]2ccc(Cl)cc2)([c]2ccc(Cl)cc2)[c]2ccc(Cl)cc2)([c]2ccc(Cl)cc2)[c]2ccc(Cl)cc2)cc1
units: %
growth inhibition: 95
--
compound: O=Nc1c(O)c2ccccc2c2ccc([N+](=O)[O-])cc12
units: %
growth inhibition: 64
--
compound: O=C1OC(=O)c2ccc(S)c3cccc1c23
units: %
growth inhibition: 95
--
compound: CCCc1nc2c(nc1C)C(=O)C=CC2=O
units: %
growth inhibition: 96
--
compound: CC[n+]1c(/C=C/c2ccc(N(C)C)cc2)ccc2ccccc21
units: %
growth inhibition: 99
--
compound: CC12OC(=O)C(C(N)=O)=C1C=C(c1ccccc1)CC2c1ccccc1 (stereo unspecified)
units: %
growth inhibition: 23
--
compound: O=C(CBr)Nc1ccc(Cc2ccc(NC(=O)CBr)cc2)cc1
units: %
growth inhibition: -4
--
compound: O=[N+]([O-])c1cc(C(F)(F)F)ccc1SSc1ccc(C(F)(F)F)cc1[N+](=O)[O-]
units: %
growth inhibition: 86

---

protocol: NCI Yeast Anticancer Drug Screen. Data for the mec2-1 strain (AID 157)
condition details: S. cerevisiae mec2-1 strain, at 5.0 µM (retest, dose inferred, filed as 0.5), active compounds read high
About 79,000 compounds went through this panel and 15% of them were active in at least one assay; those are over-represented in the sample as a whole.

compound: CCOC(=O)Nc1nc2ccc(SC#N)cc2s1
growth inhibition / %: 1

compound: O=[N+]([O-])c1ccc(Cl)cc1C(Nc1nncs1)Nc1nncs1
growth inhibition / %: 7

compound: O=C(CC(C[N+](=O)[O-])c1ccc2c(c1)OCO2)c1ccccc1 (stereo not drawn)
growth inhibition / %: 9

compound: COc1cc(C)cc2c(-c3c(O)cc(O)c4c3C[C@H](C)N[C@H]4C)cc(-c3cc(-c4c(O)cc(O)c5c4C[C@H](C)N[C@H]5C)c4cc(C)cc(OC)c4c3O)c(O)c12
growth inhibition / %: -10

compound: O=[N+]([O-])c1ccccc1NCCO
growth inhibition / %: 3

compound: C=Cc1cc(O)cc2c1-c1ccc(O)c(C)c1CC2
growth inhibition / %: -22

compound: C(=C/c1ccnc2ccccc12)/c1cccs1
growth inhibition / %: 1

compound: CCOC(=O)C(Cc1cc(I)c(Oc2ccc(OC)cc2)c(I)c1)NC(C)=O (stereo not drawn)
growth inhibition / %: 28

compound: O=C(Oc1ccc(Cl)cc1)Oc1ccc(Cl)cc1
growth inhibition / %: -10

compound: Nc1ncnc2nc(SCCO)[nH]c12
growth inhibition / %: 4

compound: CCC(CC)N(CCNc1cc(OC)cc2cccnc12)CC(C)C
growth inhibition / %: 1

compound: CC(C)CCN1CCC2(CCCCC2)CC1
growth inhibition / %: 5

compound: C/C(=N/NC(=O)c1ccccc1S(N)(=O)=O)C(CN1CCCCC1)C(C1=C(O)C2C=CC=CC2OC1=O)c1ccccc1 (stereo not drawn)
growth inhibition / %: 25

compound: CC(C)(C)CCCC(C(=O)O)c1ccccc1 (stereo not drawn)
growth inhibition / %: -10

compound: O=C(O)CCc1ccc2ccccc2c1
growth inhibition / %: 0

compound: CC(C)N=C(NC(C)C)SCCCCCCSC(=NC(C)C)NC(C)C
growth inhibition / %: -1

compound: O=C1OC(c2ccc(O)cc2)Sc2ccccc21 (stereo not drawn)
growth inhibition / %: 38

compound: CN1C(/C=C/c2ccc(O)c3ncccc23)CCC2CCCC(O)C21 (stereo not drawn)
growth inhibition / %: 26

compound: CCCCCCCCCCCCCCCC1C(N)C(=O)N(C)N1C (stereo not drawn)
growth inhibition / %: -25

compound: CC(C)(C)OC(=O)C(N(Cc1ccccc1)Cc1ccccc1)N(Cc1ccccc1)Cc1ccccc1
growth inhibition / %: 2

compound: CC1C2CC(C(S(=O)(=O)N3CCOCC3)/C2=N\O)C1(C)C (stereo not drawn)
growth inhibition / %: -12

compound: CC(=O)OCC1OC(n2cnc3c(Cl)nc(Cl)nc32)C(OC(C)=O)C1OC(C)=O (stereo not drawn)
growth inhibition / %: 1

compound: CCN(CC)CCOc1ccc(C(O)(Cc2ccc(Cl)cc2)c2ccccc2)cc1 (stereo not drawn)
growth inhibition / %: 35
